Reference source for all entries: PubChem BioAssay AID743279

- ASSAY_TEXT: qHTS for Inhibitors of Inflammasome Signaling: IL-1-beta AlphaLISA Primary Screen; also: % is scaled to controls: 0 for no effect and ±100 for the full control effect
- ASSAY_SETUP: THP-1 LPS/ATP IL-1B secretion, 16 h; at 57.5 µM
The whole screen tested about 360,000 compounds, of which about 17,000 (4.7%) were called active. About 5% were inconclusive and are not listed. Rule as the data show it: active = activity change below about -50%; inconclusive = mostly about -30% to -49%; inactive = weaker than that. For the sample, actives were picked, then their nearest neighbours and some compounds at random.
Classes used: active, inactive

COMPOUND	CLASS_ASSIGNMENT
COCCCN(C(=O)Cn1ncc2c(=O)oc3ccc(C)cc3c21)C(C)c1ccncc1 (stereo not given)	inactive
CCOC(=O)[C@]12CCCC=C1N(Cc1ccc3c(c1)OCO3)C(=O)[C@H](CC(=O)NCc1cccs1)C2	inactive
COc1ccc(OCC(O)CNC(=O)Nc2ccc(Cl)cc2)cc1 (stereo not given)	inactive
CC(O)CNCCOc1cccc(Oc2ccccc2)c1 (stereo not given)	inactive
Cc1cccc(OCC(O)CN2CCN(CCN3C(=O)c4cccc5cccc(c45)C3=O)CC2)c1C (stereo not given)	active
C=CCc1ccccc1OCC(O)CN1CCN(CCO)CC1 (stereo not given)	inactive
C[C@H]1CN([C@@H](C)CO)S(=O)(=O)c2ccc(Br)cc2O[C@H]1CN(C)C(=O)c1cnccn1	inactive
OC(CNCCc1ccc(Cl)cc1Cl)COc1ccccc1 (stereo not given)	active
COc1cc(S(=O)(=O)Nc2ncn[nH]2)ccc1Cl	inactive
COC(=O)COc1ccc2c(c1C)O/C(=C\c1ccco1)C2=O	inactive

====

- ASSAY_TEXT: qHTS for Inhibitors of Inflammasome Signaling: IL-1-beta AlphaLISA Primary Screen
- ASSAY_SETUP: THP-1 LPS/ATP IL-1B secretion, 16 h; at 57.5 µM
The campaign covered roughly 360,000 compounds. About 17,000 (4.7%) were called active. About 5% were inconclusive and are not listed. Cut-off read from the data, not from the text of the source: active = activity change below about -50%; inconclusive = mostly about -30% to -49%; inactive = weaker than that. Only a selection was taken, and actives are over-represented in it overall.
Classes used: t for active, f for inactive

COMPOUND	CLASS_ASSIGNMENT
CCOc1ccc(OCc2cccc(C(=O)N(CC)CC)c2)cc1	f
Cc1ccc(C)c(NC2=NCC(=O)N2c2ccc3c(c2)OCCO3)c1	f
CCOC(=O)[C@]12CCCC=C1N(CCC1=CCCCC1)C(=O)[C@H](CC(=O)N1CCSCC1)C2	f
CC1(c2cccc(N)c2)OCCO1	f
CC(C)CN1CCC1(C)C(=O)Nc1ccc(OC(F)F)cc1 (stereo unspecified)	f
Cc1ccccc1S(=O)(=O)NC(=O)C1(C)CCN1C(=O)C1(c2ccccc2)CCCC1 (stereo unspecified)	f
CCc1c(N=O)c(-c2ccccc2)n(O)[n+]1[O-]	f
COc1ccc(CN(C)Cc2nc3cc(OC)c(OC)cc3c(=O)[nH]2)c(OC)c1	f
C[C@@H]1CN([C@H](C)CO)C(=O)CCCn2cc(nn2)CO[C@H]1CN(C)S(C)(=O)=O	f
Cc1cc(C(=O)NC2CCCc3c2cnn3-c2cccc(C)c2C)c(C)o1 (stereo unspecified)	f
COc1ccc(NC(=O)N(C)C[C@@H]2OCc3cn(nn3)CCCC(=O)N([C@H](C)CO)C[C@H]2C)c(OC)c1	f
Cc1ccc(Cn2c(C)nc3c(c2=O)c2nc4ccccc4nc2n3Cc2ccco2)cc1	t
CS(=O)(=O)N1CCN(c2ccc(C(=O)NC3C4CC5CC(C4)CC3C5)cc2[N+](=O)[O-])CC1 (stereo unspecified)	f
CC(NC(=O)COc1cccnc1[N+](=O)[O-])c1ccc(Cl)cc1Cl (stereo unspecified)	f
O=c1c2ccccc2oc2nc(C3CCCCC3)n(Cc3ccco3)c(=O)c12	f
Cc1cccc(C)c1NC(=O)CNC(=O)c1ccc(N2CCOCC2)c([N+](=O)[O-])c1	f
Cc1cccc(C(=O)OCC(=O)Nc2sccc2C(N)=O)c1C	f
Clc1cccc(-c2nc3nc4ccccc4nc3n2Cc2ccco2)c1	f
Nc1cccc(-c2cncc(N3CCN(Cc4ccccn4)CC3)n2)c1	f
C[C@H]1CN(c2ccc(Br)cc2)C(=O)[C@@H]1CC(=O)Nc1ccc(Br)cc1	f
CCOn1c(=O)c(=O)n(O)c2ccccc21	f

====

- ASSAY_TEXT: qHTS for Inhibitors of Inflammasome Signaling: IL-1-beta AlphaLISA Primary Screen
- ASSAY_SETUP: THP-1 LPS/ATP IL-1B secretion, 16 h; at 57.5 µM
The whole screen tested about 360,000 compounds, of which about 17,000 (4.7%) were called active. About 5% were inconclusive and are not listed. Cut-off read from the data, not from the text of the source: active = activity change below about -50%; inconclusive = mostly about -30% to -49%; inactive = weaker than that. For the sample, actives were picked, then their nearest neighbours and some compounds at random.
Classes used: T (active), F (inactive)

COMPOUND	CLASS_ASSIGNMENT
OCCc1ccc(NCCc2ccco2)cc1	F
NC(CSC(c1ccccc1)(c1ccccc1)c1ccc(-c2ccccc2)cc1)C(=O)O (stereo unspecified)	F
COc1ccc(S(=O)(=O)N2CCN(CC(=O)N3CCNC3=O)CC2)cc1OC	F
NS(=O)(=O)c1ccc2nc(NC(=O)C3=COCCO3)sc2c1	F
c1ccc2c(NCC3CCCO3)nc(-c3ccncc3)nc2c1 (stereo unspecified)	F
Cc1ccc(C(=O)NNC(=O)OC(C)(C)C)c(Cl)c1	F
CCc1cc(-c2nnn(CCC3COCCO3)c2CC)ccc1-c1cn(Cc2ccc3ccccc3c2)nn1 (stereo unspecified)	F
C[C@H](CO)N1C[C@H](C)[C@@H](CN(C)Cc2ccc3c(c2)OCO3)OCc2cnnn2CCCC1=O	F
CCOC(=O)C1Cn2c(nc3c(c2=O)C(C)(CC)Cc2ccccc2-3)S1 (stereo unspecified)	T
Cc1noc(C)c1COC(=O)c1cc2ccccc2cc1O	F
Clc1cccc(-c2nc(NCC3CCCO3)c3ccccc3n2)c1 (stereo unspecified)	T

====

- ASSAY_TEXT: qHTS for Inhibitors of Inflammasome Signaling: IL-1-beta AlphaLISA Primary Screen
- ASSAY_SETUP: THP-1 LPS/ATP IL-1B secretion, 16 h; at 57.5 µM, hits give low values
The campaign covered roughly 360,000 compounds. About 17,000 (4.7%) were called active. About 5% were inconclusive and are not listed. This is one part of a sample in which actives are shown more often than they occur.

COMPOUND	activity change (%)
COc1ccc(OC)c(NC(=O)N[C@H](Cc2ccccc2)C(=O)NN)c1	-13.5
COC(=O)[C@]12CCCCC=C1N(Cc1ccco1)C(=O)[C@H](CC(=O)NCCCCc1ccccc1)C2	4
COCCNC(=O)C1(C)CCCN(Cc2cccc(F)c2)C1 (stereo unspecified)	-12.6
O=S(=O)(c1cccc(C(F)(F)F)c1)N1c2ccccc2-n2cccc2C1c1cccnc1 (stereo unspecified)	41.9
O=C(C1CC1)N1N=C2CCCCC2C1(O)C(F)(F)F (stereo unspecified)	-13
COc1ccc(CC(N)c2csc(NC(=O)NC(c3ccccc3)c3ccccc3)n2)cc1 (stereo unspecified)	-61.5
COc1ccc(CC(N)c2csc(NC(=O)Nc3ccc(C(C)C)cc3)n2)cc1 (stereo unspecified)	-108
COc1ccc(NC(=O)C(Br)C(C)C)cc1 (stereo unspecified)	-18.5
NC(Cc1ccccc1)c1csc(Nc2cc(Oc3ccccc3)ncn2)n1 (stereo unspecified)	0
Cc1ccccc1NC(=O)Cc1nc(COC(=O)c2ccc(C(F)(F)F)cc2)cs1	-4.36
COC(=O)[C@H](CCSC)NC(=O)Nc1ccc(OC)cc1	16.7

====

- ASSAY_TEXT: qHTS for Inhibitors of Inflammasome Signaling: IL-1-beta AlphaLISA Primary Screen
- ASSAY_SETUP: THP-1 LPS/ATP IL-1B secretion, 16 h; at 57.5 µM, hits give low values
The campaign covered roughly 360,000 compounds. About 17,000 (4.7%) were called active. About 5% were inconclusive and are not listed. The entries come from a sample that favours actives as a whole.
Reported activity change values follow for various compounds

COMPOUND	UNIT_OF_MEASUREMENT	activity change
COc1cccc(C(=O)NNC(=O)/C=C/c2ccccc2)c1	%	12.5
CN1CCN(c2nc(Nc3ccc(O)cc3)nc3ccccc23)CC1	%	-96.2
O=C(NCc1ccccc1)c1cccc(NC(=O)C2CCCCC2)c1	%	-13.6
C#CCNC(=O)C[C@@H]1C[C@@]2(C(=O)OCC)CCCC=C2N(Cc2ccco2)C1=O	%	43.1
COc1ccc(S(=O)(=O)N(C)C)cc1NC(=O)COC(=O)c1n[nH]c2ccccc12	%	-8.2
Cc1cc(Nc2ccc(Br)cc2)nc2ccccc12	%	-5.96
CCCCc1nc2ccccc2c(NC(=O)CN2CCN(C)CC2)c1CCC	%	-6.28
COc1ccc(S(=O)(=O)NC(=O)C2(C)CCN2C(=O)c2ccccc2CCc2ccccc2)cc1 (stereo unspecified)	%	22.1
COc1cccc(C=CC(=O)C=CC=Cc2ccccc2)c1	%	-59.4
Cc1ccccc1NC(=O)Cc1nc(COC(=O)CNC(=O)c2ccc(Cl)cc2Cl)cs1	%	11
c1ccc(-c2nnc(N3CCOCC3)c3ccccc23)cc1	%	-6.84

====

- ASSAY_TEXT: qHTS for Inhibitors of Inflammasome Signaling: IL-1-beta AlphaLISA Primary Screen
- ASSAY_SETUP: THP-1 LPS/ATP IL-1B secretion, 16 h; at 57.5 µM
Screen size: about 360,000 compounds; about 17,000 (4.7%) were called active. Inconclusive results (about 5%) are left out. Cut-off read from the data, not from the text of the source: active = activity change below about -50%; inconclusive = mostly about -30% to -49%; inactive = weaker than that. What follows is part of a selection rich in actives, with near analogues and random picks from the rest.
Classes used: 1 (yes) = active, 0 (no) = inactive

COMPOUND	CLASS_ASSIGNMENT
CCN1CCCC1CNC(=O)c1ccc2c(c1)NC(=O)/C(=C\c1ccccc1F)S2 (stereo unspecified)	0 (no)
COc1cc(C=NC2CCCCC2)ccc1O	0 (no)
CCNC(=O)C1(C)CCCN(C(=O)c2ccc3ccccc3n2)C1 (stereo unspecified)	0 (no)
Cc1cc(C)c2c(n1)nn1c(-n3ccnc3)cc(C)nc21	1 (yes)
CCC1CCCCN1C(=O)CSc1nc(C)cc(C)n1 (stereo unspecified)	0 (no)
CC(=O)COc1ccc2c(-c3ccccc3)cc(=O)oc2c1	0 (no)
CNc1cc(-c2c(OC)cccc2OC)ncn1	0 (no)
CC1(C)OC(=O)C2=C(C[C@@H](C3CC3)O[C@H]2c2ccc(Cl)cc2)O1	0 (no)
CCOc1ccccc1N1CCN(C(=O)COc2ccc3c(C)cc(=O)oc3c2)CC1	0 (no)
Cc1cc2nc(-c3ccco3)c(Cc3cccc(F)c3)n2c(C)c1Br	0 (no)
OC[C@@H]1CN(Cc2cccs2)C[C@H](n2cnc3c(NC4CCCC4)ncnc32)O1	0 (no)
